Just for reference, paper PMC6662822 is where these values come from.

experimental_system: T1, catalytic subunit of human protein kinase CK2 (human, UniProt P68400 1-391, NT-647 dye (NanoTemper Protein Labeling Kit RED), in the MST experiments only)
T1 construct: catalytic subunit (alpha) of human protein kinase CK2; The His tag is named only for the pull-down (immobilised on cobalt resin); also called hCK2α; CK2α
T1 sequence (P68400 whole entry): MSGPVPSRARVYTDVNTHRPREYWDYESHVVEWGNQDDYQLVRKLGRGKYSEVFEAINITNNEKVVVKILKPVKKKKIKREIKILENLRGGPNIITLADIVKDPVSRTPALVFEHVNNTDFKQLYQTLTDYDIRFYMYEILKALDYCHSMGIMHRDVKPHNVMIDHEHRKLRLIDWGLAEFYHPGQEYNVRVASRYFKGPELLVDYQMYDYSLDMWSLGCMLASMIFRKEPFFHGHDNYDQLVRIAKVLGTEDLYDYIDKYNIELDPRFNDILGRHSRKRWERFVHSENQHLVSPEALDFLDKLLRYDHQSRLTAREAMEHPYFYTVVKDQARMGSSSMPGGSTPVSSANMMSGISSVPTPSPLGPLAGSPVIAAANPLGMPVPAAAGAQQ
method_summary: other fluorescence titration; nanoDSF as a3, but data at 75 °C: unfolded form of hCK2α
experimental_context: both partners purified
Where no end group is shown, it is not given here.
observable: Kd

Return reported Kd; argument: KESEEE-NH2 (source: synthetic peptide (solid-phase synthesis, purified by HPLC)) [KESEEE-NH2]
~1000 µM
